System: Staphylococcus aureus
Test: Antibacterial activity against methicillin-resistant Staphylococcus aureus SR3637 infected in JCL/ICR mouse systemic infection model assessed as mortality administered as iv measured over 7 days
Type: functional
Study conditions: 168 h
Each entry below lists one item and its recorded ED50 value.

Structure as smiles: O=C(CO)N1CCN(c2c(F)cc(N3C[C@H](Cn4ccnn4)OC3=O)cc2F)CCN1
ED50 / mg/kg: 1.71
//
Structure as smiles: CC(=S)NC[C@H]1CN(c2ccc(N3CCNN(C(=O)CO)CC3)c(F)c2)C(=O)O1
ED50 / mg/kg: 2.95
//
Structure as smiles: COC(=S)NC[C@H]1CN(c2cc(F)c(N3CCNN(C(=O)CO)CC3)c(F)c2)C(=O)O1
ED50 / mg/kg: 0.77
//
Structure as smiles: COC(=S)NC[C@H]1CN(c2ccc(N3CCNN(C(=O)CO)CC3)c(F)c2)C(=O)O1
ED50 / mg/kg: 0.94
//
Structure as smiles: CC(=O)NC[C@H]1CN(c2ccc(N3CCOCC3)c(F)c2)C(=O)O1
ED50 / mg/kg: 1.73

---

Test system: Staphylococcus aureus
Test: Antibacterial activity against methicillin-resistant Staphylococcus aureus SR3637 assessed as growth inhibition by CLSI broth microdilution method
Assay type: functional
Each entry below lists one item and its recorded MIC value.
Measurement name: MIC (µg/mL)

Structure as smiles: COC(=S)NC[C@H]1CN(c2ccc(N3CCNN(C(=O)CO)CC3)c(F)c2)C(=O)O1
Experimental value: 0.25
//
Structure as smiles: CC(=S)NC[C@H]1CN(c2cc(F)c(N3CCNN(C(=O)CO)CC3)c(F)c2)C(=O)O1
Experimental value: 0.125
//
Structure as smiles: CC(=O)NC[C@H]1CN(c2ccc(N3CCN(C(=O)CO)CC3)c(F)c2)C(=O)O1
Experimental value: 1
//
Structure as smiles: CC(=S)NC[C@H]1CN(c2ccc(N3CCNN(C(=O)CO)CC3)c(F)c2)C(=O)O1
Experimental value: 0.25
//
Structure as smiles: O=C(CO)N1CCN(c2c(F)cc(N3C[C@H](CNc4ccon4)OC3=O)cc2F)CCO1
Experimental value: 0.25
//
Structure as smiles: O=C(CO)N1CCN(c2c(F)cc(N3C[C@H](Cn4ccnn4)OC3=O)cc2F)CCN1
Experimental value: 1
//
Structure as smiles: O=C(CO)N1CCN(c2c(F)cc(N3C[C@H](CNc4ccon4)OC3=O)cc2F)CCN1
Experimental value: 0.5
//
Structure as smiles: COC(=S)NC[C@H]1CN(c2cc(F)c(N3CCNN(C(=O)CO)CC3)c(F)c2)C(=O)O1
Experimental value: 0.25

---

Cytochrome P450 1A2 (Homo sapiens): reported IC50 for various compounds.
Sequence (P05177 whole entry): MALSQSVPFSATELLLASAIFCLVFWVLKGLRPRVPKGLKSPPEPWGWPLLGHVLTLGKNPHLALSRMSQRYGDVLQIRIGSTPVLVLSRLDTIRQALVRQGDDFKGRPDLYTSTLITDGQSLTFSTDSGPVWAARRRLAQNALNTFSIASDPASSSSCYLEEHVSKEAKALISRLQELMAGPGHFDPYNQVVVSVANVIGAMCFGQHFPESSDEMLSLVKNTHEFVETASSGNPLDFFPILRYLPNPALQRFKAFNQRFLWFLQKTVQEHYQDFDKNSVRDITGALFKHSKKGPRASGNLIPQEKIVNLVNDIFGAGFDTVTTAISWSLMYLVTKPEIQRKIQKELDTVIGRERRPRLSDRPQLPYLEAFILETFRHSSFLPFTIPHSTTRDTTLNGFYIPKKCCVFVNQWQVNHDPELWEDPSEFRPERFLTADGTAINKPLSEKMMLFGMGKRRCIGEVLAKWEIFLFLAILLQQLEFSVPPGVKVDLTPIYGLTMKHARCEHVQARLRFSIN
Measurement name: IC50

Structure as smiles: COC(=S)NC[C@H]1CN(c2ccc(N3CCNN(C(=O)CO)CC3)c(F)c2)C(=O)O1
Experimental value: > 20 µM
//
Structure as smiles: CC(=O)NC[C@H]1CN(c2ccc(N3CCOCC3)c(F)c2)C(=O)O1
Experimental value: > 20 µM
//
Structure as smiles: COC(=S)NC[C@H]1CN(c2cc(F)c(N3CCNN(C(=O)CO)CC3)c(F)c2)C(=O)O1
Experimental value: > 20 µM
//
Structure as smiles: CC(=O)NC[C@H]1CN(c2ccc(N3CCN(C(=O)CO)CC3)c(F)c2)C(=O)O1
Experimental value: > 20 µM
